Biological target: Tyrosine-protein kinase receptor UFO (Homo sapiens, UniProt P30530)
Sequence (P30530 whole entry): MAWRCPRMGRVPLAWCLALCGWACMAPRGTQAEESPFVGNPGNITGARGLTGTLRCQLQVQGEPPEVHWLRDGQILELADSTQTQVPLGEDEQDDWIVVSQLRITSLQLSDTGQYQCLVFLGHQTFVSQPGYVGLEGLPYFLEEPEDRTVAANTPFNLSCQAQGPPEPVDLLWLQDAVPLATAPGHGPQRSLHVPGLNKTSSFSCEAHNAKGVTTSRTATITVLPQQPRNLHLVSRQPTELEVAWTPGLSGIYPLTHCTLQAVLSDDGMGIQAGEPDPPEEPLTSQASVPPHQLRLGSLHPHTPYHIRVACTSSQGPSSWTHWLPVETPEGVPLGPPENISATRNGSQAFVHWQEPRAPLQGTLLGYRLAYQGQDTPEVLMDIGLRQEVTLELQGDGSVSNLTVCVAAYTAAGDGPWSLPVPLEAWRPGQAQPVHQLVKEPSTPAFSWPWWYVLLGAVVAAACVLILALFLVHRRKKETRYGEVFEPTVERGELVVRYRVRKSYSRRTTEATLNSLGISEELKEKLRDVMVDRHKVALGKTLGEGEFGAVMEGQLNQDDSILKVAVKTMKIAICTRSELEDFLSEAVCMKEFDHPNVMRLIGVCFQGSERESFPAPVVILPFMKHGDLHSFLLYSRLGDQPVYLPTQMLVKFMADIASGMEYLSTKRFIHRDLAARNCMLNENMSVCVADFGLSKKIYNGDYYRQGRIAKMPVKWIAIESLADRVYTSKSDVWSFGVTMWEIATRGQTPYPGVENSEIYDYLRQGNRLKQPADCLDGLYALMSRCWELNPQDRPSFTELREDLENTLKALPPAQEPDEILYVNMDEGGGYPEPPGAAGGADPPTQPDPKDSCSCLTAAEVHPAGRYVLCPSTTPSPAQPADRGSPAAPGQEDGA
pIC50: −log10 of the molar value.
# pIC50 against Tyrosine-protein kinase receptor UFO (Homo sapiens, UniProt P30530), merged from multiple literature sources

INSERT INTO measurements (compound, target_entity, data_value) VALUES
  ('CCS(=O)(=O)N1CCC[C@H](c2csc(-c3ccccc3NC(=O)c3ncc[nH]3)n2)C1', 'Tyrosine-protein kinase receptor UFO (Homo sapiens, UniProt P30530)', '< 6.20');

For the compound Nc1nc(NCCNC(=O)CCCNc2cccc3c2CN(C2CCC(=O)NC2=O)C3=O)nn1-c1ccc(-c2ccccc2)nn1 (centres undefined) , what pIC50 is on record?
< 4.22

Next compound: CN1CCC(CN2CCc3c(ncnc3Oc3ccc(NC(=O)c4cn(CCF)c(=O)n(-c5ccc(F)cc5)c4=O)cc3F)C2)CC1
8.07

Next compound: CC(=O)N1CCC[C@H](c2csc(-c3ccccc3NC(=O)c3ncc[nH]3)n2)C1
< 6.00
